Data export: GI50 values recorded with Melanoma cancer cell lines.
Respond numerically; units are nM and should not be typed.

compound	unit-of-measurement	GI50
COc1cc(C(=O)N2CCN(c3ncccn3)CC2)c(N)cc1OCc1ccccc1 [Compound 8c]	nM	1780
COc1cc(C(=O)N2CCN(c3ncnc4ccccc34)CC2)c(N)cc1OCc1ccccc1 [Compound 8d]	nM	7240
COc1cc(C(=O)N2CCN(c3ccccc3OC)CC2)c(N)cc1OCc1ccccc1 [Compound 8a]	nM	4470
COc1cc(C(=O)N2CCN(c3ccccn3)CC2)c(N)cc1OCc1ccccc1 [Compound 8b]	nM	1780

Attention now turns to another entry.
Measured on Melanoma cancer cell lines, COc1cc(C(=O)NC2c3ccccc3-c3ccccc32)c(N)cc1OCc1ccccc1 [Compound 8e] has a documented GI50 of 1780
